These measurements were taken from the supplement of paper PMC10724198.

# Tested on: Saccharomyces cerevisiae
# assay.details: protein stability index of tFT-peptide fusion in deletion strain of DOA10 (PSI (0-1 scale)); higher = more stable (slower turnover)
experimental.readout: protein stability index

AITQPMCPLLLR :: 0.701
AITFPMCPLLLR :: 0.676
AITLPMCPLLLRM :: 0.573
GLYMCSVGCWFW :: 0.453
RSFRVLLPLYFR :: 0.612
GLYMCSDGCWFR :: 0.718
RVTRLTAIYFRI :: 0.351
GLYMCSVGCWFN :: 0.343

* * *

# Tested on: Saccharomyces cerevisiae
# assay.details: protein stability index of tFT-peptide fusion (C-terminal peptide) (PSI (0-1 scale)); higher = more stable (slower turnover)
# experimental.conditions: genetic background: wild type; temperature: 37 C
Outcome label depends on protein stability index relative to 0.4: at/above gives TRUE, below gives FALSE.

SVVYVIYCGGIL :: TRUE
VWWTLWRVHMLG :: FALSE
PVWLFLVRAIKG :: TRUE
VWFVFVCAVCVL :: FALSE
RRVFPLIIVLLF :: FALSE
VYCLFLPLGVAF :: FALSE
FFATFVPSFLLC :: TRUE
AFRLRHEIISLM :: FALSE
LFFVVFFLLFLL :: TRUE
LSLWPIFGIIYC :: TRUE
PPSPVPPIWYLA :: TRUE
SCLFMLFPLVSV :: TRUE
